Overview of recorded Ki for various molecules
- testedTarget: human 5-HT1A receptor (Homo sapiens)
- Construct: expressed in transfected cells; host or cells: COS-7 (transient, pCEXV-3 vector)
- Sequence (P08908 whole entry): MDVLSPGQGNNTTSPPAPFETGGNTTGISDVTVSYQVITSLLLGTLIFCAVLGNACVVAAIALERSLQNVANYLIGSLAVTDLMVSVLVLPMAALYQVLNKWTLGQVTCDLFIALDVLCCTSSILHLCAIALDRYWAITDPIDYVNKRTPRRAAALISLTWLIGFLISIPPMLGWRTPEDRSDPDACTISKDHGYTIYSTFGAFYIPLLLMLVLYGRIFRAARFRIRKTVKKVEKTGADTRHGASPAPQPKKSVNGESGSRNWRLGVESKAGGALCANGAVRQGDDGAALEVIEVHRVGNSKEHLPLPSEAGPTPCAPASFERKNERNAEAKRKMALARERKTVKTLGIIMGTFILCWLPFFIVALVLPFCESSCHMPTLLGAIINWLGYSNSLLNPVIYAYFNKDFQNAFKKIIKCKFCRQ
- assayExplanation: Radioligand competition binding, human 5-HT1A receptor (3H-8-OH-DPAT)
- particulars: read-out: Affinity at 5-HT1A (Ki ± SEM)
readoutLabel: Ki (µM)

molecule	readoutLabel	units	measValue
O[C@H](COc1ccc2ccccc2c1)CN1CCC(O)(c2cnc3ccccc3c2)CC1	Ki	µM	0.591
CN(C)C1CCc2oc3ccc(NC(=O)c4ccncc4)cc3c2C1 (centres unmarked)	Ki	µM	0.367

====

- testedTarget: human 5-HT2B receptor (Homo sapiens, UniProt P41595)
- Construct: expressed in transfected cells
- Sequence (P41595 whole entry): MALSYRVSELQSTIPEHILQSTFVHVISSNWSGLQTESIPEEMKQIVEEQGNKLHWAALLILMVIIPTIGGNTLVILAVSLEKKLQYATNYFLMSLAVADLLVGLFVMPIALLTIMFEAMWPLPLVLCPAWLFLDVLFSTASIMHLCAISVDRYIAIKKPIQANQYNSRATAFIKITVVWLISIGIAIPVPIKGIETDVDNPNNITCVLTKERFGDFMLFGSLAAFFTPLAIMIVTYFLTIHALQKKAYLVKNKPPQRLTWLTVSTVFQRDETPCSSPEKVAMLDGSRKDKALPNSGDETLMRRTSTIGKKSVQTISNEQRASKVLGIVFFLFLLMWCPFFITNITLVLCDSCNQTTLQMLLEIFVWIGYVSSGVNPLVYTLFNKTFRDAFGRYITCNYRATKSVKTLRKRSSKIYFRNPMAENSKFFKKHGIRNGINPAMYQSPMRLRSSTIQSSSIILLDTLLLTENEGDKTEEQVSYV
- assayExplanation: Radioligand binding, human 5-HT2B receptor
pKi: −log10 of the molar value.

compoundStructureString	pKi
O[C@H](COc1ccc2ccccc2c1)CN1CCC(O)(c2cnc3ccccc3c2)CC1	6.30

meta.source: patent US20030004207A1
